Please go through the items and note down their IC50.
- target under test: E. coli DNA gyrase (Escherichia coli, UniProt P0AES4+P0AES6)
- Construct: purchased New England BioLabs
- Sequence (P0AES4 whole entry, one chain of several): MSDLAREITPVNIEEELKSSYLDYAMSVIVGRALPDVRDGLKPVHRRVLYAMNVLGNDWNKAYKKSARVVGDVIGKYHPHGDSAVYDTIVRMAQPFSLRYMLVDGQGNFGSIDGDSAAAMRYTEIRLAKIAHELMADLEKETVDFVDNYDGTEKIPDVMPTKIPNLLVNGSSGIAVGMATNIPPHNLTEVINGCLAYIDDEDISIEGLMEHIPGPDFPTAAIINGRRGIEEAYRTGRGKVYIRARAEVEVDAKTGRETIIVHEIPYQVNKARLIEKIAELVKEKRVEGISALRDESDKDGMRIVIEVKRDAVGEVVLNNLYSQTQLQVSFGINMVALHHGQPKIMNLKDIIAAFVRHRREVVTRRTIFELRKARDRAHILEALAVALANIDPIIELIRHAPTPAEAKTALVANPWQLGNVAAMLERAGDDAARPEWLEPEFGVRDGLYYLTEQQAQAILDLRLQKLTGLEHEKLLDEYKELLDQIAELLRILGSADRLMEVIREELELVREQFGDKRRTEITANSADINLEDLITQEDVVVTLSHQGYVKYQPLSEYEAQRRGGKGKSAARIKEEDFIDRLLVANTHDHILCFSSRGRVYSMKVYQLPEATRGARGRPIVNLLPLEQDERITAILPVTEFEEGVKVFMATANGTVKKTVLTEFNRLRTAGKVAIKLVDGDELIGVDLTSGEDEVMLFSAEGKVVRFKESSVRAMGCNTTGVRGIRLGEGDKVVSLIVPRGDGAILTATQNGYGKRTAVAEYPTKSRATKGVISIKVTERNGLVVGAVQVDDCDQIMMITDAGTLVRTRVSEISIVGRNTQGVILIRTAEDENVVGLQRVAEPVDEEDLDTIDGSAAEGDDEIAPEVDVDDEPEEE
- experiment notes: DNA gyrase supercoiling inhibition assay
- Type: biochemical
- details: supercoiling; read-out: IC50 E. coli DNA gyrase

Field: example entries. Status: answers known.
| structure string | target under test | test readout | reported |
| --- | --- | --- | --- |
| CNCCC[C@H](CN)NC[C@@H](CCCNC(=N)N)NCCc1cccc2ccccc12 | E. coli DNA gyrase (Escherichia coli, UniProt P0AES4+P0AES6) | IC50 | > 90 µM |
| CCCC[C@H](CN[C@@H](CN)CCCNC)NCCc1cccc2ccccc12 | E. coli DNA gyrase (Escherichia coli, UniProt P0AES4+P0AES6) | IC50 | > 100 µM |

Here's the next entry for you.
Exercise: Input `CCC[C@H](CN)NC[C@@H](CCCNC(=N)N)NCCc1cccc2ccccc12` , output reported IC50.
Solution: > 80 µM
